System: SK-N-SH human neuroblastoma cells
Assay: Serum deprivation/JC-1 mitochondrial membrane potential (MMP) assay
Type: cell-based
Conditions: SK-N-SH cells, serum deprivation ~18 hours; JC-1 ratio normalized to peak value for 10 μM dimebolin; single curve fit to mean data of n=2-3; read-out: EC50
property: EC50
Phrase the answer as number then unit, nothing more needed.

Challenge: Can you share its EC50? I mean this molecule: c1cnc2ccc(-n3c4c(c5ccccc53)[C@@H]3CC[C@H](C4)N3)cc2c1
Response given: 3.21 µM

Challenge: Can you share its EC50? I mean this molecule: NC(=O)c1cc(-n2c3c(c4ccccc42)CN2CCC3CC2)ccc1N
Response given: 6.65 µM

# credit: patent US9983218B2
